Known folding stability dG unfold of a selection of sequences
Experiment: folding stability dG unfold from chymotrypsin proteolysis; higher = more stable
Number in kcal/mol, nothing else.

Worked cases, folding stability dG unfold given:
residueSequence	folding stability dG unfold / kcal/mol
SMKYRITLTITKGDEDIVVEIETESEEEAKEKFKKAISPELLKALPEDAKVEITVEPEPLVIPEPGVPLPSA [r9_111_JUSTAS]	1.22
SAGGSAGMVVEVREFEIEPDEDKKIKATLERYETPEGPRYVLTIEDPSKNEKKSYPLEPGVDFKKLSAGGSA [r15_75_JUSTAS]	0.681
SKKFQIYNPDEGQPFQIEVDPEDGKVTVEWPNGEEEEAPVKDIEIDPGHGWIKIKHPGKEVTIRIPPDMFSA [r9_325_TrROS]	0.00862
SAPWRITDIDVKRHPNGRVRVTIRFPHPNMSVEIWLDKDGELDVEVSPDMRNHPPWFQNMIRDVAKELLSAG [r14_555_TrROS]	1.33
SAGGSAGGSAGKKKKKKLVRVRITYKNGKKKEFVFKTKEEAEKALKEEFNIEKIEIEEIPSAGGSAGGSAGG [r17_508_TrROS_Hall]	3.66

Please look up its folding stability dG unfold: SAGGMKLEFEAEITVPLPVPTPEGGLEFVPITEPIRIEAEHPEELEIALKEAELETIERALKELGIESAGGS [r16_339_TrMRF]
-0.723

Please look up its folding stability dG unfold: SAGGSAGGSAGGSMVLTTTVEETVVDENGVETKITVKTYKLPDSEITLVTFPDGTVTPESAGGSAGGSAGGS [r10_404_JUSTAS]
0.462
